Listing of entries alongside the reported kon.
molecular target: T1, AAV5; test: SPR, AAV on CM5 chip;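 also: surface plasmon resonance with AAV amine-coupled to the chip as ligand, nanobodies injected as analyte over a concentration series, rate constants and affinity fitted from binding curves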
T1 construct: also called adeno-associated virus serotype 5
Reported property: kon (M⁻¹ s⁻¹)

A4-036 (VHH) VHH: VQLQESGGGLAQAGGSLRLSCAASGRGFSINTMGWYRQAPGKQRELVAAVTRGGTTNYADSVKGRFTISRDNAKNTVYLQMNSLRPEDTAVYYCHVDEVRQSSWTTSNLWGQGTQVTVSS	7670
A4-047 (VHH) VHH: VQLQESGGGLVQPGGSLRLSCAASGSRFSINTMGWYRQAPGKQRELVATVTRGGSTNYAGSVKGRFTISRDNAKNTVYLQMNSLRPEDTAVYYCHVDEVRQSSWTTSNLWGQGTQVTVSS	185000
A4-038 (VHH) VHH: VQLQESGGGLVQPGGSLRLSCAASGSHFSINTMGWYRQAPGKQRELVATVTRGGSTNYANSVKGRFTISRDNAKNTVYLQMNSLRPEDTAVYYCHLDEVRQSSWTTSNLWGQGTQVTVSS	178000
A4-031 (VHH) VHH: VQLQESGGGLVQPGGSLRLSCAASGSGFSINTMGWYRQAPGKQRELVATVTSAGSTNYAGSVKGRFTISRDNAKNTVYLQMNSLRPEDTAVYYCHVDEIRQSSWTTSNLWGQGTQVTVSS	149000
